- Experiment Summary: Inhibition of recombinant rat/human ADAMTS12 hybrid using HiLyteFluor-488 DELSSMVLELRGLRT-K(QXL520)-E-NH2 as substrate incubated for 120 mins and measured by FRET assay
pIC50: −log10 of the molar value.
Field: class. Source value: pIC50. Ranges: bin 0 (below 5), bin 1 (5 to below 6), bin 2 (6 or more)

| Compound | Assigned Category |
| --- | --- |
| CC(C)C1(CNC(=O)c2cnn(-c3cccc(C#N)c3)n2)NC(=O)NC1=O (racemic) | bin 1 |
| O=C1NC(=O)C(CNC(=O)c2cnn(-c3ccc(F)cc3)n2)(c2cccnc2)N1 (racemic) | bin 1 |
| CC(CO)C1(CNC(=O)c2cnn(-c3ccccc3)n2)NC(=O)NC1=O (stereo not drawn) | bin 0 |
| O=C1NC(=O)C(CNC(=O)c2cnn(-c3ccc(F)cc3)n2)(C2CCCC2)N1 (stereo in doubt) | bin 1 |
| O=C1NC(=O)[C@](CNC(=O)c2cc(-c3cnn(CC4CC4)c3)no2)(C2CC2)N1 | bin 0 |

Exam item: Into which category would you place CCCC1(CNC(=O)c2cnn(-c3ccc(F)cc3)n2)NC(=O)NC1=O (racemic) ?
Marked response: bin 0

Exam item: Check "O=C1NC(=O)[C@](CNC(=O)c2cnn(-c3cnccn3)n2)(C2CC2)N1" too.
Marked response: bin 0

Exam item: And the next one, "O=C1NC(=O)[C@](CNC(=O)c2cnn(-c3ccc(F)cn3)n2)(C2CC2)N1" ?
Marked response: bin 1

Exam item: And the next one, "O=C1NC(=O)[C@](CNC(=O)c2cnn(-c3ccc(C(F)(F)F)c(F)c3)n2)(C2CC2)N1" ?
Marked response: bin 1

Exam item: Also check CC(C)C1(CNC(=O)c2cnn(-c3cc(F)c(F)c(F)c3)n2)NC(=O)NC1=O (stereo in doubt)
Marked response: bin 1

Exam item: // same read-out, input: "O=C1NC(=O)[C@](CNC(=O)c2cnn(-c3ccc(Cl)c(F)c3)n2)(C2CC2)N1"
Marked response: bin 2

Exam item: Then what about the compound O=C1NC(=O)C(CNC(=O)c2cnn(-c3cccc(F)c3)n2)(c2nccs2)N1 (racemic) ?
Marked response: bin 2

Exam item: Entry Cn1ccnc1C1(CNC(=O)c2cnn(-c3cc(F)c(F)c(F)c3)n2)NC(=O)NC1=O (stereo in doubt) please
Marked response: bin 2

Exam item: Same question for Cn1ccnc1C1(CNC(=O)c2cnn(-c3ccccc3)n2)NC(=O)NC1=O (racemic) please.
Marked response: bin 2

Exam item: Request: "O=C1NC(=O)[C@](CNC(=O)c2cnn(-c3ccc(F)c(F)c3)n2)(C2CC2)N1"
Marked response: bin 2

---

- Experiment Summary: Inhibition of recombinant rat/human ADAMTS12 hybrid using HiLyteFluor-488 DELSSMVLELRGLRT-K(QXL520)-E-NH2 as substrate incubated for 120 mins and measured by FRET assay
Listing of entries alongside the reported pIC50.
In plain terms, pIC50 is the concentration in mol/L turned into minus its base-10 logarithm.

Please review the entries below; each comes with its answer.
| Compound | pIC50 |
| --- | --- |
| CC(C)C1(CNC(=O)c2cnn(-c3ccc(F)c(Cl)c3)n2)NC(=O)NC1=O (centres undefined) | 4.92 |
| Cn1cc(-c2cc(C(=O)NC[C@@]3(C4CC4)NC(=O)NC3=O)on2)cn1 | 5.33 |
| Cc1ccccc1-n1ncc(C(=O)NC[C@@]2(C3CC3)NC(=O)NC2=O)n1 | 4.92 |
| O=C1NC(=O)[C@](CNC(=O)c2cnn(-c3ccc(Cl)cc3)n2)(C2CC2)N1 | 6.32 |
| C[C@H](NC(=O)c1cnn(-c2ccccc2)n1)C1(C2CC2)NC(=O)NC1=O (some centres undefined) | 4.60 |

Exam item: # input compound: O=C1NC(=O)C(CNC(=O)c2cnn(-c3ccccc3)n2)(C2CCCC2)N1 (stereo in doubt) ; wanted: its pIC50
Marked response: 4.96

Exam item: Would you mind doing O=C1NC(=O)C(CNC(=O)c2cnn(-c3ccc(F)cc3)n2)(c2nccs2)N1 (racemic) as well?
Marked response: 5.62

Exam item: # repeat for CC(C)(C)C1(CNC(=O)c2cnn(-c3ccccc3)n2)NC(=O)NC1=O (stereo in doubt)
Marked response: 4.88

Exam item: Entry to check: O=C1NC(=O)C(CNC(=O)c2cnn(-c3ccc(F)cc3F)n2)(c2nccs2)N1 (stereo in doubt)
Marked response: 5.26

---

- Experiment Summary: Inhibition of recombinant rat/human ADAMTS12 hybrid using HiLyteFluor-488 DELSSMVLELRGLRT-K(QXL520)-E-NH2 as substrate incubated for 120 mins and measured by FRET assay
Readout Name: IC50 (µM)
# value in µM; strip the unit string

Sample records with IC50:
| Molecule | Measured Value |
| --- | --- |
| CC(C)(C)CC1(CNC(=O)c2cnn(-c3ccccc3)n2)NC(=O)NC1=O (stereo not drawn) | 5 |
| O=C1NC(=O)[C@](CNC(=O)c2coc(-c3ccc(F)cc3)n2)(C2CC2)N1 | 1.7 |
| O=C1NC(=O)[C@](CNC(=O)c2cnn(-c3ccc(Br)cc3)n2)(C2CC2)N1 | 1.4 |
| O=C1NC(=O)[C@](CNC(=O)c2cnn(-c3ncc(F)cc3F)n2)(C2CC2)N1 | 6.2 |

Exam item: If you can, please state the reported IC50 value of Cn1nccc1C1(CNC(=O)c2cnn(-c3ccc(F)cc3)n2)NC(=O)NC1=O (racemic) .
Marked response: 2.4

Exam item: Also check CC(C)C1(CNC(=O)c2cnn(-c3ccc(F)cc3F)n2)NC(=O)NC1=O (stereo in doubt)
Marked response: 13

---

- Experiment Summary: Inhibition of recombinant rat/human ADAMTS12 hybrid using HiLyteFluor-488 DELSSMVLELRGLRT-K(QXL520)-E-NH2 as substrate incubated for 120 mins and measured by FRET assay
Readout Name: IC50 (nM)
Field: numeric (nM). Do not append units.

| Molecule | Measured Value |
| --- | --- |
| Cc1ccc(-n2ncc(C(=O)NC[C@@]3(C4CC4)NC(=O)NC3=O)n2)cc1 | 950 |
| Cn1ccnc1C1(CNC(=O)c2cnn(-c3ccc(F)cc3)n2)NC(=O)NC1=O (racemic) | 320 |
| O=C1NC(=O)[C@](CNC(=O)c2cnn(-c3ncccc3F)n2)(C2CC2)N1 | 14000 |
| Cn1ccnc1C1(CNC(=O)c2cnn(-c3ccccc3)n2)NC(=O)NC1=O (stereo in doubt) | 320 |

Exam item: // IC50 lookup, key: O=C1NC(=O)C(CNC(=O)c2cnn(-c3ccc(F)cc3)n2)(c2cscn2)N1 (stereo not given)
Marked response: 2500

---

Each entry below lists one item and its recorded IC50 value.
- Experiment Summary: Inhibition of recombinant rat/human ADAMTS12 hybrid using HiLyteFluor-488 DELSSMVLELRGLRT-K(QXL520)-E-NH2 as substrate incubated for 120 mins and measured by FRET assay
Response body: numeric value in µM, unit text excluded.

| Compound | Readout Name | Measured Value |
| --- | --- | --- |
| O=C1NC(=O)C(CNC(=O)c2cnn(-c3ccc(F)cc3)n2)(c2ncsc2C(F)(F)F)N1 (stereo in doubt) | IC50 | 3.5 |
| CC(C)C1(CNC(=O)c2cnn(-c3cccc(F)c3)n2)NC(=O)NC1=O (racemic) | IC50 | 4.5 |
| N#Cc1ccc(-n2ncc(C(=O)NC[C@@]3(C4CC4)NC(=O)NC3=O)n2)cc1 | IC50 | 17 |
| O=C1NC(=O)C(CNC(=O)c2cnn(-c3ccc(F)cc3)n2)(c2ncccc2C(F)(F)F)N1 (racemic) | IC50 | 15 |
| O=C1NC(=O)[C@](CNC(=O)c2cnn(-c3cccc(F)c3F)n2)(C2CC2)N1 | IC50 | 3.1 |

Exam item: Which IC50 value belongs to CC(C)C1(CNC(=O)c2cnn(-c3cccc(C#N)c3)n2)NC(=O)NC1=O (stereo in doubt) ?
Marked response: 2.6

Exam item: // repeat for "CS(=O)(=O)c1ccc(-n2ncc(C(=O)NC[C@@]3(C4CC4)NC(=O)NC3=O)n2)cc1" and report
Marked response: 67

Exam item: What about O=C1NC(=O)C(CNC(=O)c2cnn(-c3ccc(F)cc3)n2)(C2CCOCC2)N1 (stereo in doubt) ?
Marked response: 1.5

---

- Experiment Summary: Inhibition of recombinant rat/human ADAMTS12 hybrid using HiLyteFluor-488 DELSSMVLELRGLRT-K(QXL520)-E-NH2 as substrate incubated for 120 mins and measured by FRET assay
Readout Name: IC50 (µM)
// note: answer is a bare numeric in µM

Here are 10 compounds together with their reported answers.
| Compound | IC50, µM |
| --- | --- |
| Cn1ccnc1C1(CNC(=O)c2cnn(-c3ccc(F)cc3)n2)NC(=O)NC1=O (stereo in doubt) | 0.13 |
| O=C1NC(=O)C(CNC(=O)c2cnn(-c3ccc(F)cc3)n2)(C2CCCC2)N1 (racemic) | 50 |
| CC(C)C1(CNC(=O)c2cnn(-c3ccc(F)cc3)n2)NC(=O)NC1=O (stereo in doubt) | 2.77 |
| O=C1NC(=O)C(CNC(=O)c2cnn(-c3cccc(F)c3)n2)(C2CCC2)N1 (stereo not drawn) | 2.2 |
| O=C1NC(=O)C(CNC(=O)c2cnn(-c3ccc(F)cc3)n2)(c2ccnn2C(F)F)N1 (racemic) | 2.4 |
| O=C1NC(=O)[C@](CNC(=O)c2cnn(-c3ccccc3Cl)n2)(C2CC2)N1 | 10 |
| O=C1NC(=O)C(CNC(=O)c2cnn(-c3cccc(Cl)c3)n2)(C2CCC2)N1 (stereo not drawn) | 2.2 |
| CC1(CNC(=O)c2cnn(-c3ccc(F)cc3)n2)NC(=O)NC1=O (stereo in doubt) | 8.9 |
| O=C1NC(=O)[C@](CNC(=O)c2cnn(-c3ccc(Cl)c(Cl)c3)n2)(C2CC2)N1 | 0.91 |
| CCC(C)C1(CNC(=O)c2cnn(-c3ccc(F)cc3)n2)NC(=O)NC1=O (stereo in doubt; form 2) | 1 |

Exam item: What IC50 value was documented for this compound, "O=C1NC(=O)[C@](CNC(=O)c2cnn(-c3cnsc3)n2)(C2CC2)N1" ?
Marked response: 7.4

Exam item: Follow-up entry: CCCC1(CNC(=O)c2cnn(-c3ccc(F)cc3)n2)NC(=O)NC1=O (stereo in doubt)
Marked response: 5.1

Exam item: How about this compound: O=C1NC(=O)C(CNC(=O)c2cnn(-c3ccc(F)cc3)n2)(c2ccccn2)N1 (stereo in doubt; form 1)
Marked response: 1.9

Exam item: Let us now turn to CC(C)(C)C1(CNC(=O)c2cnn(-c3ccccc3)c2)NC(=O)NC1=O (racemic)
Marked response: 5.6

Exam item: Please answer likewise for CC(C)C1(CNC(=O)c2cnn(-c3ccc(Cl)c(F)c3)n2)NC(=O)NC1=O (stereo in doubt)
Marked response: 1

Measured values drawn from ChEMBL document CHEMBL5052852 for this set.
